Test: Single intravenous dose escalation of P5P, plasma pharmacokinetics (Examples Two and Three)
Type: in vivo, human
Conditions: both sexes, human, plasma, iv, 10 mg/kg, Group 3, P5P 10 mg/kg single iv; plasma P5P; mean
Experimental: A phase one clinical trial was conducted to compare the pharmacokinetics of intravenously administered P5P and orally administered P5P. The trial was a single dose escalation study. […] P5P, pyridoxal, and 4-pyridoxic acid were evaluated in both plasma and urine over a 24 hour interval following either intravenous or oral dosing. […] Concentrations of pyridoxal-5′-phosphate (P5P) were measured from the plasma samples collected over a 24-bour interval after dosing in each phase. […]
assay endpoint: Vd (L)
// units = L; emit number, no label

# Vd of Cc1ncc(COP(=O)(O)O)c(C=O)c1O [P5P, Pyridoxal 5′-phosphate, reference compound] = 18
